// data source = patent US20220017611A1

assay.system: T1, recombinant full-length Tau protein, longest isoform (Tau 2N4R) (human, UniProt P10636-8 1-441, biotinylated with NHS-biotin for SPR; 15N-labelled for NMR)
T1 construct: range 1-441; Expressed in E. coli from pET15b-Tau; also called biotinylated-Tau; 15N-Tau
T1 sequence (P10636 other isoform, or with tags, fused parts or gaps limits assumed): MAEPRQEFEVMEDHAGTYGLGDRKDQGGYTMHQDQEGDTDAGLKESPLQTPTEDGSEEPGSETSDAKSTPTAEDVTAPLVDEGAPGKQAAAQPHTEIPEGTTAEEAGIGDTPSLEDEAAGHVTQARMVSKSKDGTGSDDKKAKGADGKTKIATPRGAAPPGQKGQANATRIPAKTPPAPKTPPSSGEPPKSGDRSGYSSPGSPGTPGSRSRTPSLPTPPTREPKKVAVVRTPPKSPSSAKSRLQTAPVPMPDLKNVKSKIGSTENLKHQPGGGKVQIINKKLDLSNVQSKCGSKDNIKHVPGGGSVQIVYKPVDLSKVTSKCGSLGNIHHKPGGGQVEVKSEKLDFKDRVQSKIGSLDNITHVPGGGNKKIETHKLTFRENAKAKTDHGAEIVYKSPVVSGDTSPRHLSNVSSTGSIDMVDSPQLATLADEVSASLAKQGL
test.details: SPR (Biacore T200), single-cycle kinetics, biotinylated Tau on streptavidin chip, VHH injected 0.125-2 µM
Provide the reported Kd of each item.
Please respond with the number in nM and leave the unit unwritten.

### Prompt For the binder VHH Mut3 (VHH, Variant of Z70; also called VH Mut3) VHH: EVQLQASGGVFVQSGGSLRLSCAASGATSTFDGMGWFRQAPGKEKEFVSAISYEQGSYTYYADSVKGRFTISRDNSKNMVYLQMNSLRAEDTATYYCAPAYEGDLYAFDSYGGQGTQVTVSS , give its measured Kd value.
### Response 80.5

### Prompt Dear colleague, please send me the reported Kd for VHH Mut5 (VHH, Variant of Z70; also called VH Mut5) VHH: EVQLQASGGVFVQSGGSLRLSCAASGATSTFDGMGWFRQAPGKEREFVSAISYEQGSYTYYADSVKGRFTISRDNSKNMVYLQMNSLRAEDTASYYCAPAYEGDLYAFDSYGGQGTQVTVSS when you can.
### Response 80.8

### Prompt For VHH Mut15 (VHH, Variant of Z70; also called VH Mut15) VHH: EVQLQASGGVFVQSGGSLRLSCAASGATSTFDGMGWFRQAPGKEREFVSAISYEQGSYTYYADSVKGRFTISRDNSKNMVYLQMNSLGAEDTATYYCASAYEGDLYAFDSYEGQGTQVTVSS , write its Kd.
### Response 95.6

### Prompt Give the measured Kd for VHH Mut20 (VHH, Variant of Z70; also called VH Mut20) VHH: EVQLQASGGVFVQSGGSLRLSCAASGATSTFDGMGWFRQAPGKEKEFVSAISYEQGSYTYYADSVKGRFTISRDNSKNMVYLQMNSLRAEDTATYYCAPAYEGDLYAFDSYGEQGTQVTVSS
### Response 41.8
